# Test system: Aurora kinase C (Homo sapiens)
# Sequence (whole entry): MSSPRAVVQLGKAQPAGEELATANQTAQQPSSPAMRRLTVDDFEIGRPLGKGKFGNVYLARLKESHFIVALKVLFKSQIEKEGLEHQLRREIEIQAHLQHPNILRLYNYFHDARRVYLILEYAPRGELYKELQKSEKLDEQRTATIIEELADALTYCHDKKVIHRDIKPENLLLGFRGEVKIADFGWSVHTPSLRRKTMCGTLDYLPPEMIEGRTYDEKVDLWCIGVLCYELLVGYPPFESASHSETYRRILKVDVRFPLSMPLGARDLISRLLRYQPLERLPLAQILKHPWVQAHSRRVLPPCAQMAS
# Test method notes: Inhibition of AURKC at 1 uM

{"Compound smiles": "CN1CCN(c2ccc(-c3cnc4c(c3)N(Cc3cc(Cl)ccc3C(F)(F)F)CCN4)cn2)CC1", "Test system": "Aurora kinase C (Homo sapiens)", "Unit name": "%", "Qualifier operator": "<", "inhibition": 50}
{"Compound smiles": "O=C(c1ccc(-c2cnc3c(c2)N(Cc2cc(Cl)ccc2C(F)(F)F)CCN3)cc1)N1CCCCC1", "Test system": "Aurora kinase C (Homo sapiens)", "Unit name": "%", "Qualifier operator": "<", "inhibition": 50}
{"Compound smiles": "CC(=O)N1CCN(c2cc(-c3cnc4c(c3)N(Cc3cc(Cl)ccc3C(F)(F)F)CCN4)ccn2)CC1", "Test system": "Aurora kinase C (Homo sapiens)", "Unit name": "%", "Qualifier operator": "=", "inhibition": 89}
{"Compound smiles": "FC(F)(F)c1ccc(Cl)cc1CN1CCNc2ncc(-c3ccnc(N4CCNCC4)c3)cc21", "Test system": "Aurora kinase C (Homo sapiens)", "Unit name": "%", "Qualifier operator": "=", "inhibition": 92}
{"Compound smiles": "CN1CCN(c2ccc(-c3cnc4c(c3)N(Cc3cc(Cl)ccc3Cl)CCN4)cn2)CC1", "Test system": "Aurora kinase C (Homo sapiens)", "Unit name": "%", "Qualifier operator": "<", "inhibition": 50}
{"Compound smiles": "CN1CCN(c2ccc(-c3cnc4c(c3)N(Cc3cc(F)ccc3F)CCN4)cn2)CC1", "Test system": "Aurora kinase C (Homo sapiens)", "Unit name": "%", "Qualifier operator": "<", "inhibition": 50}
{"Compound smiles": "O=C(c1ccc(-c2cnc3c(c2)N(Cc2cc(Cl)ccc2C(F)(F)F)CCN3)cc1)N1CCC(N2CCCC2)CC1", "Test system": "Aurora kinase C (Homo sapiens)", "Unit name": "%", "Qualifier operator": "=", "inhibition": 96.9}
{"Compound smiles": "O=C(O)c1ccc(-c2cnc3c(c2)N(Cc2cc(Cl)ccc2C(F)(F)F)CCN3)cc1", "Test system": "Aurora kinase C (Homo sapiens)", "Unit name": "%", "Qualifier operator": "<", "inhibition": 50}
{"Compound smiles": "COC1CCN(C(=O)c2ccc(-c3cnc4c(c3)N(Cc3cc(Cl)ccc3C(F)(F)F)CCN4)cc2)CC1", "Test system": "Aurora kinase C (Homo sapiens)", "Unit name": "%", "Qualifier operator": "=", "inhibition": 79.5}
{"Compound smiles": "CN1CCN(c2ccc(-c3cnc4c(c3)N(Cc3c(F)ccc(F)c3Cl)CCN4)cn2)CC1", "Test system": "Aurora kinase C (Homo sapiens)", "Unit name": "%", "Qualifier operator": "<", "inhibition": 50}
